Where do these numbers come from? They come from patent US6255317A.

Tested on: human liver HepG2 cell line
Experiment: Cholesterol biosynthesis in cultured human liver cell line HepG2 ([1,2-14C]acetate)
Assay type: cell-based
Conditions: compared with AY9944, comparative drug
measurement_type: cholesterol biosynthesis in human HepG2 cell line (in words)

compound	result
CCC1=C2c3cc(OC)c(OC)cc3CCN2C(CC(C)=O)c2c1ccc(OC)c2OC (stereo not drawn) [Compound No. 37, 8-Acetonyl-13-ethyldihydropalmatine]	markedly inhibited
CCOc1cc2c(cc1OCC)-c1c(CC)c3ccc(OCC)c(OCC)c3c[n+]1CC2	markedly inhibited
CCC1=C2c3cc(OC)c(OC)cc3CCN2Cc2c1ccc(OC)c2OC [Compound No. 46, 13-Ethyldihydropalmatine]	markedly inhibited

* * *

I'd be grateful if you could share measured Trigly-ceride, percent change in parentheses for these entries.
System: Syrian Golden Hamster
Test: In vivo effect on plasma lipids and glucose in Syrian Golden Hamster
Details: against normal diet control; 6.0 mg/kg/day
Numbers only, in %.

Record excerpt, results attached:
compound	measurement_unit	quantitative_readout
CCC1=C2c3cc(OC)c(OC)cc3CCN2Cc2c1ccc(OC)c2OC [Compound No. 46, 13-Ethyldihydropalmatine]	%	-35.6
CCOc1cc2c(cc1OCC)-c1c(CC)c3ccc(OCC)c(OCC)c3c[n+]1CC2 [Compound No. 5, 2,3,9,10-Tetraethoxy-13-ethylberberine]	%	-28.5
CCC1=C2c3cc(OC)c(OC)cc3CCN2C(CC(C)=O)c2c1ccc(OC)c2OC (stereo not shown) [Compound No. 37, 8-Acetonyl-13-ethyldihydropalmatine]	%	-48.1

--- query ---
Exam item: Give Trigly-ceride, percent change in parentheses only, for CCc1c2[n+](cc3c(OC)c(OC)ccc13)CCc1cc(OC)c(OC)cc1-2 [Compound No. 8, 13-Ethylpalmatine] , using Syrian Golden Hamster data.
Marked response: -31.7

* * *

Biological target: sterol 14-reductase (Rattus norvegicus)
Construct: to give a microsome which was used as an enzyme source of sterol 14-reductase; from tissue
Experiment: Sterol 14-reductase assay with rat liver microsomes (substrate 4,4-dimethyl-5α-cholesta-7,14-dien-3β-ol, GLC)
Assay type: biochemical, Sprague-Dawley rats
Conditions: read-out: Enzyme Activity (relative in vitro activity for sterol 14-reductase, IC50 class)
I'd be grateful if you could share measured IC50 for these entries.

Record excerpt, results attached:
compound	IC50
CCCCCCCCc1c2[n+](cc3c(OC)c(OC)ccc13)CCc1cc(OC)c(OC)cc1-2 [Compound No. 14, 13-n-octylpalmatine]	≥ 100 µM
CCC1=C2c3cc(OC)c(OC)cc3CCN2C(C2CCCC2=O)c2c1ccc(OC)c2OC (stereo not drawn) [Compound No. 42]	≥ 100 µM
COc1ccc2c(c1OC)C(CC(C)=O)N1CCc3cc4c(cc3C1=C2)OCO4 (stereo not drawn) [Compound No. 26, 8-Acetonyldihydroberberine]	≥ 100 µM
CCC1=C2c3cc(OC)c(OC)cc3CCN2C(CC#N)c2c1ccc(OC)c2OC (stereo not drawn) [Compound No. 41, 8-Cyanomethyl-13-ethyldihydropalmatine]	≥ 100 µM
CCC1=C2c3cc(OC)c(OC)cc3CCN2C(CC(C)=O)c2c1ccc(OC)c2OC (stereo not drawn) [Compound No. 37, 8-Acetonyl-13-ethyldihydropalmatine]	≤ 1 µM

--- query ---
Exam item: Please give measured IC50 of the following entry: CCC1=C2c3cc(OC)c(OC)cc3CCN2C(CC(=O)CC(C)C)c2c1ccc(OC)c2OC (stereo not drawn) [Compound No. 40]
Marked response: 10 to 100 µM

* * *

I'd be grateful if you could share measured IC50 for these entries.
Target: sterol 14-reductase (Rattus norvegicus, UniProt A0ACM8Q6X4)
Construct: to give a microsome which was used as an enzyme source of sterol 14-reductase; from tissue
Sequence (A0ACM8Q6X4 1-418): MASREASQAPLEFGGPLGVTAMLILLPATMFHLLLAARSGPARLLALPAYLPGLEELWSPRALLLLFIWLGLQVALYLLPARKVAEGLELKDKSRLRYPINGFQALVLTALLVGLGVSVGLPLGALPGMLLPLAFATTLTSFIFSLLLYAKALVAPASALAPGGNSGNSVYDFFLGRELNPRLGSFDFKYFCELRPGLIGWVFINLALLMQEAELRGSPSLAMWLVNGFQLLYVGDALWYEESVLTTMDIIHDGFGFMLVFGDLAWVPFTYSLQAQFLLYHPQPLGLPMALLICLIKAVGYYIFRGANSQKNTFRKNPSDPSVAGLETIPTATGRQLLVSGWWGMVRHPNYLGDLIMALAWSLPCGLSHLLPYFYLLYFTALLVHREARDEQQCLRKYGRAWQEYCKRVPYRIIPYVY
Experiment: Sterol 14-reductase assay with rat liver microsomes (substrate 4,4-dimethyl-5α-cholesta-7,14-dien-3β-ol, GLC)
Type: biochemical, Sprague-Dawley rats
Conditions: read-out: Enzyme Activity (relative in vitro activity for sterol 14-reductase, IC50 class)

Record excerpt, results attached:
compound	assay_target	IC50
CCc1c2[n+](cc3c(O)c(O)ccc13)CCc1cc(O)c(O)cc1-2 [Compound No. 7, 2,3,9,10-Tetrahydroxy-13-ethylberberine]	sterol 14-reductase (Rattus norvegicus, UniProt A0ACM8Q6X4)	10 to 100 µM
CCC1=C2c3cc(OC)c(OC)cc3CCN2C(CC(=O)C(C)C)c2c1ccc(OC)c2OC (stereo not shown) [Compound No. 39]	sterol 14-reductase (Rattus norvegicus, UniProt A0ACM8Q6X4)	10 to 100 µM
CCc1c2[n+](cc3c(NCCO)c(OC)ccc13)CCc1cc(OC)c(OC)cc1-2 [Compound No. 25, 9-Hydroxyethylamino-13-ethylberberine]	sterol 14-reductase (Rattus norvegicus, UniProt A0ACM8Q6X4)	10 to 100 µM
COC(=O)C(C)c1c2[n+](cc3c(OC)c(OC)ccc13)CCc1cc3c(cc1-2)OCO3 (stereo not shown) [Compound No. 22, 13-(1-methoxycarbonylethyl)berberine]	sterol 14-reductase (Rattus norvegicus, UniProt A0ACM8Q6X4)	≥ 100 µM

I have 3 compounds here; please give me IC50 for each one.
1. CCCC1c2c(ccc(OC)c2OC)C=C2c3cc4c(cc3CCN21)OCO4 (stereo not shown) [Compound No. 29, 8-n-propyldiydroberberine]
2. CCC(=O)CC1c2c(ccc(OC)c2OC)C(CC)=C2c3cc(OC)c(OC)cc3CCN21 (stereo not shown) [Compound No. 38]
3. C=CCc1c2[n+](cc3c(OC)c(OC)ccc13)CCc1cc3c(cc1-2)OCO3 [Compound No. 9, 13-Allylberberine]

Marked response:
1: ≥ 100 µM; 2: ≤ 1 µM; 3: ≥ 100 µM
